Taken from ChEMBL document CHEMBL3507680.

Recorded measurements of cytotoxicity at 70.5 h, one per entry
assay: Human HepG2 cell viability assay in 384 well format; assay type: toxicity, cell-based; parameters: dose 125 nL, time 70.5 hour; concentration not given beside the values; details: HepG2 cells, read-out: Inhibition
Report as a plain number; the unit % is understood.

Look at this molecule and give its reported cytotoxicity at 70.5 h. Cc1ccsc1C(=O)N1CC(C(=O)N2CCOCC2)C2(CCOCC2)C1 (centres undefined)
24.8

State the recorded cytotoxicity at 70.5 h for this entry: COC(=O)CCCN(C)C(c1cccnc1)c1ccc(F)cc1F (centres undefined)
5.6

What does the record list as cytotoxicity at 70.5 h for CCC(C)N(Cc1cccnc1)C(=O)CCSC (centres undefined) ?
-8.8

I am curious: what cytotoxicity at 70.5 h value has been reported for CCN1CCN(c2ccc(F)cc2C(C)NCc2noc(C)n2)CC1 (centres undefined) ?
-7.42

# cytotoxicity at 70.5 h lookup, item CN1CCC(CNC(=O)c2ccc(O)nc2)c2ccccc21 (centres undefined)
1.07

Please give the measured cytotoxicity at 70.5 h for this molecule: Cc1nccc(N2CCCC2CCNS(C)(=O)=O)n1 (centres undefined)
-2.97

Consider the molecule NC(=O)C(CNC(=O)COCC(F)(F)F)Cc1ccc(F)cc1 (centres undefined) and give its measured cytotoxicity at 70.5 h.
-18.2

For CC1N(CC2CC2)C(=O)COC12CCN(C(=O)c1ccno1)CC2 (centres undefined) , what is its reported cytotoxicity at 70.5 h?
-4.07

Tell me the measured cytotoxicity at 70.5 h of Cc1nn(C)c(N(C)C)c1CNCc1ccc(N(C)C)nc1 , please.
-2.4

What measured cytotoxicity at 70.5 h goes with COCC1CC2(CCN(C(=O)c3ccc(F)cc3C)CC2)CO1 (centres undefined) ?
-2.86

Reported cytotoxicity at 70.5 h for CCS(=O)(=O)c1ncc(CN(C)Cc2ccc(C)o2)n1CCOC : what is it?
17.1
